target: Human TRPV3 expressing CHO cells (Homo sapiens, UniProt Q8NET8); assay: 45Calcium uptake assay: inhibition of 2-APB induced cellular uptake of radioactive calcium; conditions: 2-APB 500 μM, class symbols
Sequence (Q8NET8 whole entry): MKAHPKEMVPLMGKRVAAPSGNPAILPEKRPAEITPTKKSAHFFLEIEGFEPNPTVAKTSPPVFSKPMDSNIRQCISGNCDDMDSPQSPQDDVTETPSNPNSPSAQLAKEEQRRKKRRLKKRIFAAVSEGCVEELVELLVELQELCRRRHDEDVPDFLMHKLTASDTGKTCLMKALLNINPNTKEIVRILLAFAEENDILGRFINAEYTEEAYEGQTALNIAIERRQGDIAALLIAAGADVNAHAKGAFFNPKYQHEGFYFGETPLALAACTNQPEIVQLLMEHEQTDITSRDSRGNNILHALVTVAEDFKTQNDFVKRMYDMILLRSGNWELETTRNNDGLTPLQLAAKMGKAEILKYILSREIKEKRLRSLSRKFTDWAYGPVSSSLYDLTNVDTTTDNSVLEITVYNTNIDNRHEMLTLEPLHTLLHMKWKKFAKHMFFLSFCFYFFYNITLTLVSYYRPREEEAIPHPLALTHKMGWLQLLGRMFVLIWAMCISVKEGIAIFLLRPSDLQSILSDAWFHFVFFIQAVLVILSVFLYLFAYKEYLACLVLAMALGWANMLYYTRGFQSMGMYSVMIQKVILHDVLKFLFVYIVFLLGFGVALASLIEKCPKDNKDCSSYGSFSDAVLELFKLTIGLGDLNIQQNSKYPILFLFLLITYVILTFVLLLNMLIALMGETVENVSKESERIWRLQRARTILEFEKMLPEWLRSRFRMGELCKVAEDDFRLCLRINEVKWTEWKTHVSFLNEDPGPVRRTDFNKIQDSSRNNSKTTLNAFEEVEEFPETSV
pIC50: −log10 of the molar value.
outcome-measure: pIC50

Solved entries:
smiles-data: CCN(C(=O)c1c(/C=C/c2cccc(OC)c2OCC(C)(C)C)nc2sccn12)c1nc(C(F)(F)F)cs1
outcome-measure: pIC50
result: > 7.00

smiles-data: COc1cccc(/C=C/c2nc3sccn3c2C(=O)Nc2nc(C(F)(F)F)cs2)c1OCC(C)C
outcome-measure: pIC50
result: 6.00 to 6.60

smiles-data: COc1cccc(/C=C/c2nc3sccn3c2C(=O)Nc2nc(C(F)(F)F)cs2)c1OC1CCCC1
outcome-measure: pIC50
result: 6.00 to 6.60

smiles-data: CC(C)(C)COc1c(/C=C/c2nc3sccn3c2C(=O)Nc2nc(C(C)(C)C)cs2)cccc1OC(F)F
outcome-measure: pIC50
result: 6.60 to 7.00

## Task Please report the recorded pIC50 for COc1cccc(/C=C/c2nc3sccn3c2C(=O)Nc2nc(C(C)(C)C)cs2)c1OCC(C)(C)C .
## Result > 7.00

## Task Try this molecule next: O=C(Nc1nc(C2CC2)cs1)c1c(/C=C/c2cccc(OC(F)F)c2OCC2CCC2)nc2sccn12
## Result > 7.00

## Task Similarly, COc1cccc(/C=C/c2nc3sccn3c2C(=O)Nc2nc(C)cs2)c1OCC(C)(C)C ?
## Result 6.00 to 6.60

## Task What do you have for CCCCCOc1c(/C=C/c2nc3sccn3c2C(=O)Nc2nc(C3CC3)cs2)cccc1OC(F)F ?
## Result 6.60 to 7.00

## Task And then O=C(Nc1nc(C(F)(F)F)cs1)c1c(/C=C/c2cccc(OC(F)F)c2OCC2CCC2)nc2sccn12 , what is it?
## Result 6.60 to 7.00

## Task Now this one: O=C(Nc1nc(C(F)(F)F)cs1)c1c(/C=C/c2cccc(OC(F)F)c2OC2CCCC2)nc2sccn12
## Result 6.00 to 6.60
